Target: mouse Tas2r108 (Mus musculus, UniProt Q9JKT3)
Construct: expressed in transfected cells; host or cells: HEK293T-Gα16gust44
Sequence (Q9JKT3 1-297): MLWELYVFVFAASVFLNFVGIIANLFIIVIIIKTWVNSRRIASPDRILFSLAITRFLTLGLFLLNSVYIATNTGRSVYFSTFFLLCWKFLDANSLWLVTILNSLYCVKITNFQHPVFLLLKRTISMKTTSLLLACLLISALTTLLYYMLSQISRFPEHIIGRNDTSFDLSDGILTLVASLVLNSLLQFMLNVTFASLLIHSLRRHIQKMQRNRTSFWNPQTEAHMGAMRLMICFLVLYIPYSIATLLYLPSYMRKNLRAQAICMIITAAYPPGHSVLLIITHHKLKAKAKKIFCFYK
Test: Calcium imaging assay (FLIPR), HEK293T-Gα16gust44 cells transfected with mouse Tas2r108
Assay type: cell-based
Conditions: Time 173.562 s
Overview of recorded RLU for various compounds
quantity name: RLU (RLU)

INSERT INTO results (compound_structure, tested_on, quantity_name, endpoint_result) VALUES
  ('C[C@H](CCC(=O)O)[C@H]1CC[C@H]2[C@@H]3CC[C@@H]4C[C@H](O)CC[C@]4(C)[C@H]3C[C@H](O)[C@]12C', 'mouse Tas2r108 (Mus musculus, UniProt Q9JKT3)', 'RLU', 514.108),
  ('C[C@H](CCC(=O)NCCS(=O)(=O)O)[C@H]1CC[C@H]2[C@@H]3[C@H](O)C[C@@H]4C[C@H](O)CC[C@]4(C)[C@H]3C[C@H](O)[C@]12C', 'mouse Tas2r108 (Mus musculus, UniProt Q9JKT3)', 'RLU', 233.427),
  ('C[C@H](CCC(=O)O)[C@H]1CC[C@H]2[C@@H]3[C@H](O)C[C@@H]4C[C@H](O)CC[C@]4(C)[C@H]3C[C@H](O)[C@]12C', 'mouse Tas2r108 (Mus musculus, UniProt Q9JKT3)', 'RLU', 173.738),
  ('C[C@H](CCC(=O)NCC(=O)O)[C@H]1CC[C@H]2[C@@H]3[C@H](O)C[C@@H]4C[C@H](O)CC[C@]4(C)[C@H]3C[C@H](O)[C@]12C', 'mouse Tas2r108 (Mus musculus, UniProt Q9JKT3)', 'RLU', 187.201);
